# System: MS2 coat protein
# measurement.description: apparent KD of MS2 coat protein; higher = weaker reporter binding
# cond: Eterna round: R107; input ligand: tryptophan 2.4 mM
measurement.kind: apparent KD of MS2 coat protein (nM)
One number for each entry, in nM.

>>> assay_result("GGACUAACCAGAAGGAGCGGCACGCAGAAACUGCAAAAUCCUCCGCACGAGGAUCACCCGUGUCAGGUAGGUCGCUGGUUAGUCG [ArgBX 28]")
33.8
>>> assay_result("GGCGCGAGCCAACAUGAGGAUCACCCAUGUCGAGGACCGGUACGGCCGCCACUCGAACGAGUGGCGCGCGCGCGCGCGCGCGCGC [Vaa]")
28.6

Go through the list and state apparent KD of MS2 coat protein for each entry.
1. ACAUGAGGAUCACCCAUGUUUGUUGUUCCUCGAGGACCGGUACGGCCGCCACUCGAACGAGUGGCGCGCGCGCGCGCGCGCGCGC [aMa]
2. GGGCUCGGAGUGCGGCGUGUUCCGCUCCGUCGAGGACCGGUACGGCCGCCACUCGACAUGAGGAUCACCCAUGUCCGAGCGCGCG [#1 Exclusion - Tryptophan A Attempt #6 (HarryS)]
3. GUUUAGAGCUCGGCCGCCACUCAAACAUGAGGAUCACCCAUGUAAAACAUGAGGAUCACCCAUGUGAGGACCGGGAGAAAUAAGA [Exclusion Tryptophan B GF7]

[12.6, 9.64, 420]

I would be grateful if you could provide apparent KD of MS2 coat protein for each of the following entries.
1. ACGUAAUGCGGAAGGAGCGUCAUUUUAAAACAUGAGGAUCACCCAUGUAAUAUUUUUGUGUGACAGGUAGGUCGCCGAAGUACGA [#07 Same State - Arginine B]
2. GCGAUGGAGCGAAGGAGCGUGCUAGUACAUGAGGAUCACCCAUGUGAGUCGCAUCGCUAAGCACAGGUAGGUCGCGCUCCAUCGC [EAB NP+V+V2 #9]
3. UAUCCACAUGAGGAUCACCCAUGUAAGGAAGGAGCGGUGAAUGCACCAGGUAGGUCGCCUUGCUGAGGACAGCCGGUGGAUUCGU [Exclusion - Arginine A (Freestyle 24)]

1: 13.6; 2: 87.6; 3: 16.2

Give apparent KD of MS2 coat protein for each of the items listed below.
1. GUAGCGACGACGGCCGCCACUCACAGGUGAGGGUAGACCAACCUUCACAUGAGGAUCACCCAUGUGAGGACCGGGUUGUCGCUAC [#12 Exclusion Tryptophan B]
2. UAUAUAUAAACAUGAGGAUCACCCAUGUAACGAGGACCGGUACGGCCGCCACUCGGCCGGCAAGGGAGAGGACGGGAAACCGUCG [ETA NP+V+V2 #27]
3. AGUCUUAAUGGAAGGAGCGCAGUCAUAACAUGAGGAUCACCCAUGUCGAUGUGAGGGUCAUUGCAGGUAGGUCGCCAUACUAAGA [Same State - Arginine B (Freestyle 4)]
4. GCACAAGAUGGAAGGAGCGCUGGUAAAGGUCACAUGAGGAUCACCCAUGUGCUCCUUGCCGAGCAGGUAGGUCGCCAUCUUGUGC [SSAB NP+V+V2 #3]
5. ACUUUGUCGGGUGAUACCAGCCUCGGCAAAUCUCGUGCCGAACAUGAGGAUCACCCAUGUGGCCCUUGGCAGCACAUGACAACUC [Cezara]
6. ACAUGAGGAUCACCCAUGUGCAGCACGGAUACCAGCGUCCUAGUGCGCCCUUGGCAGCCGGACAUGAGGAUCACCCAUGUGUGGG [Exclusion Theophylline A GF30]

1: 168; 2: 17.1; 3: 32.6; 4: 11.7; 5: 912; 6: 95.7
